# ASSAY TARGET: S1P4 (Homo sapiens)
# Construct: Tango fusion (own knowledge: TEV protease site + GAL4-VP16 transcription factor fused to the receptor's C-terminus)
# Sequence (O95977 1-384): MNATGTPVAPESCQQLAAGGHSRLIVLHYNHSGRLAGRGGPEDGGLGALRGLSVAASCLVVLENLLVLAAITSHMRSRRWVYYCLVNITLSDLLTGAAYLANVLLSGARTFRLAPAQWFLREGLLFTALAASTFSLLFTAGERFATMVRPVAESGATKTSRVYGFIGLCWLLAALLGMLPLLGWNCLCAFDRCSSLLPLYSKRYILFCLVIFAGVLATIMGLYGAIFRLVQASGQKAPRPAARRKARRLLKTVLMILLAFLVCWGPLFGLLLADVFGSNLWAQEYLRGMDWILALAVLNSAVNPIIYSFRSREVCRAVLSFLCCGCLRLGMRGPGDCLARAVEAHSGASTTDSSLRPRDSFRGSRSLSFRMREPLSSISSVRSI
# ASSAY NAME: Specificity over other S1P receptors: S1P4-bla TANGO U2OS
# RECORDED CONDITIONS: without Forskolin, FreeStyle Expression medium; read-out: S1P4 agonist value (EC50)
TEST READOUT: EC50

In: Fill blank: measured EC50 of the compound `CC(C)Oc1ccc(-c2nnc(-c3cccc4c3CC[C@@H]4NS(N)(=O)=O)s2)cc1C#N` is ____.
Out: > 10 µM

All values here come from patent US8507538B2.
